- Study System: human activated kallikrein enzyme (Homo sapiens (Human), UniProt P03952)
- Sequence (P03952 391-638): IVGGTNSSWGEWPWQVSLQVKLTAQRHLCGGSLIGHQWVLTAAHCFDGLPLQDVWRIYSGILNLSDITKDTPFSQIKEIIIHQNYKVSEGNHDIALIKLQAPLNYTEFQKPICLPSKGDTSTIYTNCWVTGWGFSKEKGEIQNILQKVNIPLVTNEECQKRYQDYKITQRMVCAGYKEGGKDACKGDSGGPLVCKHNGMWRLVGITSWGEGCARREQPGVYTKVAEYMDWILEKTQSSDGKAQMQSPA
- Sequence (P03952 20-390 partner): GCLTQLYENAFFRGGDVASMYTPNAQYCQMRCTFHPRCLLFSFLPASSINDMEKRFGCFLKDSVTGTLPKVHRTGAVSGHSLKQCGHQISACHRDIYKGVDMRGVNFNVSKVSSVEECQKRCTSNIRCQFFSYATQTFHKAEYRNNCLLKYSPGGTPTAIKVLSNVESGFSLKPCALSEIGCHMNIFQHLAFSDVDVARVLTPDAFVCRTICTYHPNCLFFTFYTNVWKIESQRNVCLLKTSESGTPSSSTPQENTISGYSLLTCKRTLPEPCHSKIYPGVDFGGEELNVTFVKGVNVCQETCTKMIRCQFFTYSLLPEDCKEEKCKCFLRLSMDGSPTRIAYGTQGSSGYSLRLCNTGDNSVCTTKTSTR
- Test Name: Plasma kallikrein inhibition assay with fluorogenic peptide substrate, 500 pM activated kallikrein format
- Assay type: biochemical
- Conditions: 500 pM activated kallikrein; 300 uM Pro-Phe-Arg-7-amido-4-methylcoumarin substrate; 30 min preincubation, 10 min reaction at RT; read-out: Primary Dose Response Assay: Average EC50
The entries below come with measured EC50 values attached.

# value of EC50, human activated kallikrein enzyme (Homo sapiens (Human), UniProt P03952), item O=S(=O)(NCc1cccc(Cl)c1)c1cnn(Cc2cn3cc(C4CC4)ccc3n2)c1 = > 7100 nM

***
# value of EC50, human activated kallikrein enzyme (Homo sapiens (Human), UniProt P03952), item COc1ccc(-n2cnnn2)c(CNC(=O)c2cn(Cc3cn4cc(C5CC5)cc(CN)c4n3)nn2)c1F = ≤ 1 nM

# value of EC50, human activated kallikrein enzyme (Homo sapiens (Human), UniProt P03952), item O=C(NCc1ncc2c(F)cc(Cl)cn12)c1cnn(Cc2cn3cc(C4CC4)ccc3n2)c1 = 100 to 2000 nM
